Data provenance is PubChem BioAssay (EPA / NIEHS).

- TEST_PROTOCOL: CCTE_Shafer_MEA_dev_correlation_coefficient_mean: CCTE's Neural Network Formation Assay for Mean Correlation Coefficient, Shafer Lab (AID 2284093)
The source made the active and inactive calls. How the source made its calls: active means hit-call score of the fitted dose curve at least 0.9, where 1 is the maximum; inactive means score below 0.9.
Your response should consist of one outcome taken from 1 (active), 0 (inactive)

Answered cases to consult:
In [3]: df
Out[3]:
                                   molecule  group_label
0           O=C1O[C@H]([C@@H](O)CO)C(O)=C1O            0
1  CC(C)(c1cc(Br)c(O)c(Br)c1)c1cc(Br)c(O)c(Br)c1            0
2       CC/C(=C(/CC)c1ccc(O)cc1)c1ccc(O)cc1            1
3                                 Oc1ccccc1            0
4                  CN1C(=O)CC[C@H]1c1cccnc1            0

Now take the following compound into account.
-- ask What did the test return for c1ccc2ccccc2c1 ?
-- reply 0

###

- TEST_PROTOCOL: Tanguay_ZF_120hpf_SNOU_legacy: (Legacy) Oregon State University Tanguay Lab 120 Hour Post-fertilization zebrafish Assay for Snout Malformation (AID 2283637)
Records with an inconclusive call do not appear. Calls of active or inactive are those of the source. How the source made its calls: active means hit-call score of the fitted dose curve at least 0.9, where 1 is the maximum; inconclusive means response in the unintended direction; inactive means score below 0.9.
Your response should consist of one outcome taken from TRUE for active, FALSE for inactive

Answered cases to consult:
>>> print(df.to_string())
                                   compound  group_label
0  Cc1oc2c(NC(=O)c3c(Cl)cccc3Cl)cccc2c1C(C)(C)O        FALSE
1                           CCCCCCCCCC(=O)O        FALSE
2                           Oc1ccc2ccccc2c1         TRUE
3  CC(O)CC(C)(C)O (configuration not stated)        FALSE
4  COc1cccc([C@H](O)C2CCN(CCc3ccc(F)cc3)CC2)c1OC         TRUE

-- ask What did the test return for CCCCCCCCCCCCO ?
-- reply FALSE

-- ask What did the test return for C[C@]12CC[C@@H]3c4ccc(O)cc4CC[C@H]3[C@@H]1CC[C@H]2O ?
-- reply FALSE

-- ask What did the test return for O=C1c2ccccc2C(=O)N1CCc1noc(-c2ccc(CN3CCCCCC3)s2)n1 ?
-- reply FALSE

-- ask What did the test return for Cc1c2ccccc2c(C)c2c1ccc1ccccc12 ?
-- reply FALSE

-- ask What did the test return for O=C(O)Cn1c(=O)n(Cc2ccc(Br)cc2F)c(=O)c2ccc(Cl)cc21 ?
-- reply FALSE

-- ask What did the test return for CC[C@H](NC(=O)c1cc(F)ccc1NS(=O)(=O)c1cccc2cccnc12)c1ccccc1 ?
-- reply FALSE

-- ask What did the test return for C[C@]12CC[C@@H]3c4ccc(O)cc4CC[C@H]3[C@@H]1CCC2=O ?
-- reply FALSE

###

- TARGET_OR_TEST_SYSTEM: Retinoic acid receptor RXR-alpha (Homo sapiens)
- TEST_PROTOCOL: OT_NURR1_NURR1RXRa_1440: Odyssey Thera (OT) 24-hour HEK293T Protein Complementation Assay for Nurr1/retinoid X receptor (RXR) (AID 2283386)
Inconclusive results are not listed. Activity calls are given as the source filed them. How the source made its calls: active means hit-call score of the fitted dose curve at least 0.9, where 1 is the maximum; inconclusive means response in the unintended direction; inactive means score below 0.9.
Your response should consist of one outcome taken from active, inactive

Answered cases to consult:
MOLECULE	TARGET_OR_TEST_SYSTEM	GROUP_LABEL
Cc1ncc(CO)c(CO)c1O	Retinoic acid receptor RXR-alpha (Homo sapiens)	inactive
CC1=CC(=O)/C(=C(/C)O)C(=O)O1	Retinoic acid receptor RXR-alpha (Homo sapiens)	inactive
Oc1ccc2ccccc2c1	Retinoic acid receptor RXR-alpha (Homo sapiens)	inactive

-- ask What did the test return for COCC(C)OCC(C)OCC(C)O (stereo unspecified) ?
-- reply inactive

-- ask What did the test return for CC(C)(C)c1csc(-c2cc3cc(OCc4ccccc4CC(=O)O)ccc3o2)n1 ?
-- reply active

-- ask What did the test return for CO[C@H]1/C=C/O[C@@]2(C)Oc3c(C)c(O)c4c(O)c(c(/C=N/N5CCN(C)CC5)c(O)c4c3C2=O)NC(=O)/C(C)=C\C=C\[C@H](C)[C@H](O)[C@@H](C)[C@@H](O)[C@@H](C)[C@H](OC(C)=O)[C@@H]1C ?
-- reply inactive

-- ask What did the test return for COc1cccc([C@H](O)C2CCN(CCc3ccc(F)cc3)CC2)c1OC ?
-- reply inactive

-- ask What did the test return for O=C(O)Cn1c(=O)n(Cc2ccc(Br)cc2F)c(=O)c2ccc(Cl)cc21 ?
-- reply inactive

-- ask What did the test return for c1ccc2n[nH]nc2c1 ?
-- reply inactive

-- ask What did the test return for OCCO ?
-- reply inactive

-- ask What did the test return for Oc1ccccc1 ?
-- reply inactive

-- ask What did the test return for CCCCCCCCCC(=O)O ?
-- reply inactive

-- ask What did the test return for CCCCCCCCCCCO ?
-- reply inactive

-- ask What did the test return for CCCOC(=O)c1cc(O)c(O)c(O)c1 ?
-- reply inactive

###

- Read-out: NAD(P)H dehydrogenase [quinone] 1 (NQO1), NQO1 (gene 1728)
- TEST_PROTOCOL: LTEA_HepaRG_NQO1: Life Technologies and Expression Analysis (LTEA) Assay for NAD(P)H dehydrogenase [quinone] 1 (NQO1) using HepaRG (AID 2283526)
- CONDITION: mRNA level, 48 h; actives raise or lower the signal
Activity calls are given as the source filed them. Rule for the calls: active = hit-call score of the fitted dose curve at least 0.9, where 1 is the maximum; inactive = score below 0.9.
Your response should consist of one outcome taken from active, inactive

Answered cases to consult:
>>> df
                          compound  group_label
0  CCCCCCCCOC(=O)c1cc(O)c(O)c(O)c1     inactive
1          CCCCCCCCCCCC[N+](C)(C)C     inactive

-- ask What did the test return for CN(C)C(=O)C1(N2CCCCC2)CCN(CC[C@@]2(c3ccc(Cl)c(Cl)c3)CN(C(=O)c3ccccc3)CCO2)CC1 ?
-- reply inactive

-- ask What did the test return for CC(O)CC(C)(C)O (stereo not given) ?
-- reply inactive

-- ask What did the test return for O=C(Nc1ccc(Cl)cc1)Nc1ccc(Cl)c(Cl)c1 ?
-- reply active

-- ask What did the test return for Cc1cc(F)ccc1-c1cc(N2CC[C@@H](O)[C@H]2CO)ncc1N(C)C(=O)C(C)(C)c1cc(C(F)(F)F)cc(C(F)(F)F)c1 ?
-- reply active

###

- TARGET_OR_TEST_SYSTEM: human Esterase Plasma (ES), BCHE (gene 590)
- TEST_PROTOCOL: NVS_ENZ_hES: NovaScreen (NVS) Enzymatic Assay for human Esterase Plasma (ES) (AID 2283157)
Records with an inconclusive call do not appear. The source made the active and inactive calls. Rule for the calls: active = hit-call score of the fitted dose curve at least 0.9, where 1 is the maximum; inconclusive = response in the unintended direction; inactive = score below 0.9.
Your response should consist of one outcome taken from active, inactive

-- ask What did the test return for Clc1cc(Cl)c2c(c1)N=C1CCCCCN1C2 ?
-- reply active

-- ask What did the test return for CC/C(=C(/CC)c1ccc(O)cc1)c1ccc(O)cc1 ?
-- reply inactive

-- ask What did the test return for NCc1cccc(C2CCN(C(=O)c3ccc(C#Cc4ccccc4F)o3)CC2)c1 ?
-- reply active

###

- Read-out: Interleukin-1 alpha (IL1a), IL1A (gene 3552)
- TEST_PROTOCOL: BSK_BE3C_IL1a: BioMAP Diversity Plus: BE3C Assay for Interleukin-1 alpha (IL1a) Biomarker Activity (AID 2283016)
- CONDITION: primary human bronchial epithelial cells; actives raise or lower the signal
Activity calls are given as the source filed them. Rule for the calls: active = hit-call score of the fitted dose curve at least 0.9, where 1 is the maximum; inactive = score below 0.9.
Your response should consist of one outcome taken from active, inactive

>>> print(df.to_string())
                                   molecule  group_label
0  NC(=O)c1nc(-c2cccc(-c3cc(F)ccc3OCC(F)(F)C(F)(F)F)c2)n[nH]1       active

-- ask What did the test return for COc1ccc2cc(S(=O)(=O)N[C@H](CC(=O)N[C@H](Cc3ccc(CN4[C@H](C)CCC[C@@H]4C)cc3)C(=O)N(C)C(C)C)c3ccc4c(c3)OCO4)ccc2c1 ?
-- reply inactive

-- ask What did the test return for CC[C@@H]1C[C@H](N(Cc2cc(C(F)(F)F)cc(C(F)(F)F)c2)C(C)=O)c2cc(C(F)(F)F)ccc2N1C(=O)OC(C)C ?
-- reply inactive

-- ask What did the test return for c1ccc2n[nH]nc2c1 ?
-- reply inactive

-- ask What did the test return for c1ccc2ccccc2c1 ?
-- reply inactive

###

- TEST_PROTOCOL: ATG_VDRE_CIS: Attagene CIS-FACTORIAL HepG2 Assay for human Vitamin D Receptor Element (VDRE) (AID 2282968)
- CONDITION: HepG2 VDRE cis-reporter transcription, actives raise or lower the signal
Active and inactive are the calls of the source. The calls were made as follows: active = hit-call score of the fitted dose curve at least 0.9, where 1 is the maximum; inactive = score below 0.9.
Your response should consist of one outcome taken from class 1 (active), class 0 (inactive)

>>> print(df.to_string())
                                   compound  group_label
0  CN(C)c1ccc(C(=C2C=CC(=[N+](C)C)C=C2)c2ccc(N(C)C)cc2)cc1      class 0
1        O=C(OCCCCCCOC(=O)c1ccccc1)c1ccccc1      class 0
2  CN(C[C@@H](CC[N+]12CCC(C3CCCCC3)(CC1)CC2)c1ccc(Cl)c(Cl)c1)C(=O)c1cc(C(F)(F)F)cc(C(F)(F)F)c1      class 0

-- ask What did the test return for NCc1cccc(C2CCN(C(=O)c3ccc(C#Cc4ccccc4F)o3)CC2)c1 ?
-- reply class 1

-- ask What did the test return for CC1(C)NC(=O)N(c2ccc([N+](=O)[O-])c(C(F)(F)F)c2)C1=O ?
-- reply class 0

-- ask What did the test return for CCN(CC)C(=O)c1cc(S(=O)(=O)Cc2ccccc2)c(N2CCC(c3ccccc3)CC2)cc1N(CC)CCN(C)C ?
-- reply class 0

-- ask What did the test return for CCCCCCCCCCCO ?
-- reply class 0

-- ask What did the test return for Cc1cn([C@H]2C[C@H](N=[N+]=[N-])[C@@H](CO)O2)c(=O)[nH]c1=O ?
-- reply class 0

-- ask What did the test return for CCO[Si](CCCNC(N)=O)(OCC)OCC ?
-- reply class 0

-- ask What did the test return for COCC(C)OCC(C)OCC(C)O (configuration not stated) ?
-- reply class 0

-- ask What did the test return for CC(C)(C)c1cc(/C=C2\SC(N)=NC2=O)cc(C(C)(C)C)c1O ?
-- reply class 1

-- ask What did the test return for O=C(O)c1ccccc1-n1cc(C(=O)O)c(=O)c2cc(Nc3c(F)cc(F)cc3Cl)c(Cl)cc21 ?
-- reply class 0
